In this section we review reported polymerase ribozyme fitness (log ratio) values for a set of variants.
B1: TPR 5TU (parent)
chain: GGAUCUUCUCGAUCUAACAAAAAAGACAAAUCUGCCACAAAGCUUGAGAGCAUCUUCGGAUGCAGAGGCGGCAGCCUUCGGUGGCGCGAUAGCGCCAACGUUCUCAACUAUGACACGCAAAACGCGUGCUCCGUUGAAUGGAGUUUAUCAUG

- Variants of: B1
- MEASUREMENT PROTOCOL: polymerase ribozyme fitness, log enrichment relative to wild type (log ratio); higher = more active; in vitro selection for triplet polymerase activity
Fewer inactive variants are shown than the library holds.

{"CHANGE": "A17C U31C G50C C51A", "LIMIT SIGN": "=", "polymerase ribozyme fitness (log ratio)": -0.997}
{"CHANGE": "C51U C87U A121U", "LIMIT SIGN": "=", "polymerase ribozyme fitness (log ratio)": -0.813}
{"CHANGE": "C79G U101G U109G U135C U148A", "LIMIT SIGN": "≤", "polymerase ribozyme fitness (log ratio)": -4.2}
{"CHANGE": "C54A G59U A91G U135A", "LIMIT SIGN": "=", "polymerase ribozyme fitness (log ratio)": -3.95}
{"CHANGE": "A16G G83U U139G", "LIMIT SIGN": "=", "polymerase ribozyme fitness (log ratio)": -1.17}
{"CHANGE": "U90G G126U A147U", "LIMIT SIGN": "=", "polymerase ribozyme fitness (log ratio)": -3.95}
{"CHANGE": "C35G C57U C85G U151A", "LIMIT SIGN": "≤", "polymerase ribozyme fitness (log ratio)": -4.2}
{"CHANGE": "A19G G25U A47C U78C C96A", "LIMIT SIGN": "≤", "polymerase ribozyme fitness (log ratio)": -4.2}
{"CHANGE": "G58C G83U", "LIMIT SIGN": "=", "polymerase ribozyme fitness (log ratio)": -2.88}
{"CHANGE": "A119U A137U", "LIMIT SIGN": "=", "polymerase ribozyme fitness (log ratio)": -4.12}
{"CHANGE": "C10G U13A A23U C32A A41G G71C C87U C105U A115U", "LIMIT SIGN": "≤", "polymerase ribozyme fitness (log ratio)": -4.2}
{"CHANGE": "G88C A115U G117U C131G U135G", "LIMIT SIGN": "≤", "polymerase ribozyme fitness (log ratio)": -4.2}
{"CHANGE": "G58C C93U", "LIMIT SIGN": "=", "polymerase ribozyme fitness (log ratio)": -1.71}
{"CHANGE": "A23U G48C C54A C75G G80C C96U G140A", "LIMIT SIGN": "≤", "polymerase ribozyme fitness (log ratio)": -4.2}
{"CHANGE": "A21U A39C C57U A97G", "LIMIT SIGN": "=", "polymerase ribozyme fitness (log ratio)": -2.62}
{"CHANGE": "C14A C76A A89C U90G C95U A107U", "LIMIT SIGN": "≤", "polymerase ribozyme fitness (log ratio)": -4.2}
{"CHANGE": "A47C C95U C116A", "LIMIT SIGN": "=", "polymerase ribozyme fitness (log ratio)": -0.555}
{"CHANGE": "A21U A30C C51U G71U C85U", "LIMIT SIGN": "≤", "polymerase ribozyme fitness (log ratio)": -4.2}
{"CHANGE": "G84A A115U", "LIMIT SIGN": "=", "polymerase ribozyme fitness (log ratio)": -2.62}
{"CHANGE": "U53A G140C", "LIMIT SIGN": "=", "polymerase ribozyme fitness (log ratio)": -3.65}
{"CHANGE": "C14U G94C", "LIMIT SIGN": "=", "polymerase ribozyme fitness (log ratio)": -2.9}
{"CHANGE": "A52C G58U G59A C85A", "LIMIT SIGN": "=", "polymerase ribozyme fitness (log ratio)": -2.15}
{"CHANGE": "U82G C96U", "LIMIT SIGN": "=", "polymerase ribozyme fitness (log ratio)": -2.13}
{"CHANGE": "U55G C105U G141U U145C U146G", "LIMIT SIGN": "=", "polymerase ribozyme fitness (log ratio)": -3.09}
{"CHANGE": "C8G A24G A30G G70A G136C", "LIMIT SIGN": "≤", "polymerase ribozyme fitness (log ratio)": -4.2}
{"CHANGE": "G25C C93U", "LIMIT SIGN": "=", "polymerase ribozyme fitness (log ratio)": -3.59}
{"CHANGE": "A40G A52C G83U A98C", "LIMIT SIGN": "=", "polymerase ribozyme fitness (log ratio)": -3.64}
{"CHANGE": "G50U A60U", "LIMIT SIGN": "=", "polymerase ribozyme fitness (log ratio)": -0.536}
{"CHANGE": "A52G G62A C85U", "LIMIT SIGN": "=", "polymerase ribozyme fitness (log ratio)": -1.4}
{"CHANGE": "A28U G74A C85U A91U", "LIMIT SIGN": "≤", "polymerase ribozyme fitness (log ratio)": -4.2}
{"CHANGE": "A24U G140A", "LIMIT SIGN": "=", "polymerase ribozyme fitness (log ratio)": -4.12}
{"CHANGE": "A22U G34A G74U G94A A119C G143A", "LIMIT SIGN": "≤", "polymerase ribozyme fitness (log ratio)": -4.2}
{"CHANGE": "U15C G46A G59A C93A", "LIMIT SIGN": "=", "polymerase ribozyme fitness (log ratio)": -3.01}
{"CHANGE": "C85G C99G", "LIMIT SIGN": "=", "polymerase ribozyme fitness (log ratio)": -4.1}
{"CHANGE": "A20C A60C C85A", "LIMIT SIGN": "=", "polymerase ribozyme fitness (log ratio)": -2.66}
{"CHANGE": "U9C A49G A106G C116U G136A A137C G143A U144C U148G", "LIMIT SIGN": "≤", "polymerase ribozyme fitness (log ratio)": -4.2}
{"CHANGE": "A28G G50C A122G U145C U148A", "LIMIT SIGN": "≤", "polymerase ribozyme fitness (log ratio)": -4.2}
{"CHANGE": "G83A A115G", "LIMIT SIGN": "=", "polymerase ribozyme fitness (log ratio)": -1.64}
{"CHANGE": "A12U A23C C54U C116G A147C U151A", "LIMIT SIGN": "≤", "polymerase ribozyme fitness (log ratio)": -4.2}
{"CHANGE": "G25U G50C U77A C87U A107G", "LIMIT SIGN": "≤", "polymerase ribozyme fitness (log ratio)": -4.2}
{"CHANGE": "A3U C35U C54A C85G", "LIMIT SIGN": "≤", "polymerase ribozyme fitness (log ratio)": -4.2}
{"CHANGE": "A17C G133A", "LIMIT SIGN": "=", "polymerase ribozyme fitness (log ratio)": -3.15}
{"CHANGE": "U7A C85U", "LIMIT SIGN": "=", "polymerase ribozyme fitness (log ratio)": -2.9}
{"CHANGE": "A3C U4A U6C U15C A17G C38U C54U C72U G86U U127G", "LIMIT SIGN": "≤", "polymerase ribozyme fitness (log ratio)": -4.2}
{"CHANGE": "A41G U44A U61C C75U A142C", "LIMIT SIGN": "≤", "polymerase ribozyme fitness (log ratio)": -4.2}
